Examples of compounds with documented melting point follow.

Worked examples follow.
{"COMPOUND": "CCCc1cc(-c2csc(-c3ccc(OCC)c(OCC)c3)n2)cc(C(=O)O)c1O [Example 363]", "melting point": "179 to 180 °C"}
{"COMPOUND": "COc1ccc(-c2nc(-c3ccc4c(c3)CCC(=O)N4)co2)cc1OC [Example 137]", "melting point": "191 to 192 °C"}
{"COMPOUND": "CCOc1ccc(C(=O)c2csc(-c3ccc(OCC)c(OCC)c3)n2)cc1OCC [Example 246]", "melting point": "128 to 129 °C"}
{"COMPOUND": "COc1ccc(-c2nc(-c3ccc4c(c3)CCCN4C(=O)c3ccccc3)cs2)cc1OC [Example 144]", "melting point": "152.5 to 153.5 °C"}
{"COMPOUND": "CCOc1ccc(-c2nc(-c3ccc(N)c(C(=O)O)c3)cs2)cc1OCC [Example 359]", "melting point": "228 to 229 °C"}
{"COMPOUND": "CCOc1ccc(-c2nc(Cn3cccc3C(C)=O)cs2)cc1OCC [Example 459]", "melting point": "123 to 124 °C"}
{"COMPOUND": "O=C1CCc2cc(-c3csc(-c4ccc(C(=O)O)cc4)n3)ccc2N1 [Example 147]", "melting point": "≥ 300 °C"}
{"COMPOUND": "COc1ccc(C(=O)c2nc(-c3ccc4[nH]c(=O)c(O)c(O)c4c3)cs2)cc1OC [Example 152]", "melting point": "249 to 251 °C"}
{"COMPOUND": "COc1ccc(-c2nc(-c3ccc(OS(=O)(=O)O)cc3)cs2)cc1OC [Example 238]", "melting point": "248 to 249 °C"}
{"COMPOUND": "CCOc1ccc(-c2nc(-c3ccc(OC(C)=O)c(C(=O)O)c3)cs2)cc1OCC [Example 364]", "melting point": "178 to 179 °C"}

Prompt: Provide one value: measured melting point of `COc1ccc(-c2nc(-c3cc(N)cc(N)c3)cs2)cc1OC.Cl.Cl`
Completion: 198 to 200 °C

Prompt: Provide one value: measured melting point of COc1ccc(-c2nc(-c3ccc4oc(=O)[nH]c4c3)cs2)cc1OC [Example 145]
Completion: 271 to 272 °C

Prompt: Provide one value: measured melting point of CCOc1ccc(-c2nc(-c3ccc(SC(=O)N(C)C)c(C(=O)OC)c3)cs2)cc1OCC [Example 354]
Completion: 108 to 109 °C

Prompt: Provide one value: measured melting point of COc1ccc(-c2nc(-c3ccc4c(c3)N(C)C(=O)CS4)cs2)cc1OC [Example 143]
Completion: 143.5 to 144 °C

Prompt: Provide one value: measured melting point of CCOc1ccc(-c2nc(-c3cc(C=CC(=O)O)c(O)c(C(=O)O)c3)cs2)cc1OCC [Example 514]
Completion: 260 to 261 °C

Prompt: Provide one value: measured melting point of `CCOc1ccc(-c2nc(-c3ccc(O[Si](C)(C)C(C)(C)C)c(CO)c3)cs2)cc1OCC`
Completion: 101.3 to 103 °C

Prompt: Provide one value: measured melting point of `CCOc1ccc(-c2nc(-c3ccc(NCCN4CCCCC4)c(C(=O)OC)c3)cs2)cc1OCC.Cl.Cl`
Completion: 93 to 94 °C

Prompt: Provide one value: measured melting point of COc1cc(-c2nc(-c3ccc4c(c3)CCC(=O)N4)cs2)ccc1[S+](C)[O-] (stereo not shown) [Example 149]
Completion: 264 to 265 °C

Prompt: Provide one value: measured melting point of CCOc1ccc(-c2nc(-c3ccc(S)cc3C(=O)O)cs2)cc1OCC [Example 355]
Completion: 283 to 285 °C

Prompt: Provide one value: measured melting point of [O-][n+]1cccc(-c2nc(-c3ccccc3)cs2)c1 [Example 139]
Completion: 140 to 141 °C

Prompt: Provide one value: measured melting point of CCOc1ccc(-c2nc(-c3ccc(OS(=O)(=O)C(F)(F)F)c(C(=O)OC)c3)cs2)cc1OCC [Example 457]
Completion: 112 to 113 °C

----------
Examples of compounds with documented melting point follow.

Worked examples follow.
{"COMPOUND": "CCOc1ccc(-c2nc(-c3cc(C(=O)O)ccn3)cs2)cc1OCC [Example 516]", "VAL": "236.2 to 237.2 °C"}
{"COMPOUND": "CCOc1ccc(-c2nc(-c3cccc(C(=O)O)c3)cs2)cc1OCC [Example 362]", "VAL": "192 to 192.8 °C"}
{"COMPOUND": "CCCCCCCCCOC(=O)c1cc(-c2csc(-c3ccc(OCC)c(OCC)c3)n2)ccc1O [Example 461]", "VAL": "67 to 68 °C"}
{"COMPOUND": "CCOC(=O)C=Cc1cc(-c2csc(-c3ccc(OCC)c(OCC)c3)n2)cc(C(=O)OCOC)c1OCOC [Example 512]", "VAL": "94 to 96 °C"}
{"COMPOUND": "CCOc1ccc(-c2nc(-c3cc(CCO)c(O)c(C(=O)OC)c3)cs2)cc1OCC [Example 358]", "VAL": "113 to 114 °C"}
{"COMPOUND": "C=CCc1cc(-c2csc(-c3ccc(OCC)c(OCC)c3)n2)cc(C(=O)OC)c1O [Example 353]", "VAL": "118 to 119 °C"}

Prompt: Provide one value: measured melting point of `CCOc1ccc(-c2nc(-c3cccc(CN(C)C)n3)cs2)cc1OCC.Cl.Cl`
Completion: 195 °C (dec.)

Prompt: Provide one value: measured melting point of `CCOc1ccc(-c2nc(-c3ccc(O)c(CC)c3)c(CN(C)C)s2)cc1OCC.Cl.Cl`
Completion: 163 to 168 °C

----------
- System: human neutrophilic leukocytes
- PROCEDURE_SUMMARY: Inhibition of superoxide radical (O2-) generation in FMLP-stimulated human neutrophilic leukocytes (ferricytochrome C method)
- Format: cell-based
- STATED_CONDITIONS: Table 15; O2- generation, 3x10^-7 M FMLP, cytochalasin B, 37° C., pH 7.4
One threshold, 800 nM, splits the recorded IC50 values: lower ones are y, equal or higher ones are n.

{"SMILES_INPUT": "CCOc1ccc(-c2nc(-c3ccc(O[C@@H]4O[C@H](COC(C)=O)[C@@H](OC(C)=O)[C@H](OC(C)=O)[C@H]4OC(C)=O)cc3)cs2)cc1OCC", "STUDY_SYSTEM": "human neutrophilic leukocytes", "ANSWER_LABEL": "n"}
{"SMILES_INPUT": "CCOc1ccc(-c2nc(-c3cccc(C(=O)N4CCN(C)CC4)n3)cs2)cc1OCC", "STUDY_SYSTEM": "human neutrophilic leukocytes", "ANSWER_LABEL": "y"}
{"SMILES_INPUT": "CCOc1ccc(-c2nc(-c3ccc(OC)c(C(=O)O)c3)cs2)cc1OCC", "STUDY_SYSTEM": "human neutrophilic leukocytes", "ANSWER_LABEL": "y"}
{"SMILES_INPUT": "Fc1ccc(-c2csc(-c3cccnc3)n2)cc1.Fc1ccc(-c2csc(-c3cccnc3)n2)cc1.Fc1ccc(-c2csc(-c3cccnc3)n2)cc1.[Cl][Fe][Cl]", "STUDY_SYSTEM": "human neutrophilic leukocytes", "ANSWER_LABEL": "n"}
{"SMILES_INPUT": "CCCc1cc(-c2csc(-c3ccc(OCC)c(OCC)c3)n2)cc(C(=O)O)c1O", "STUDY_SYSTEM": "human neutrophilic leukocytes", "ANSWER_LABEL": "y"}

Attention now shifts to the item below.
Prompt: Just wondering, is IC50 of `CCOc1ccc(-c2nc(-c3cccc(CO)n3)cs2)cc1OCC` below 800 nM?
Completion: y

----------
Examples of compounds with documented melting point follow.

{"COMPOUND": "O=c1[nH]cccc1-c1nc(-c2ccccc2)cs1", "melting point": "206 to 207 °C (dec.)"}
{"COMPOUND": "CCOc1ccc(-c2nc(-c3cccc(CO)n3)cs2)cc1OCC", "melting point": "109 to 113 °C"}

Prompt: Provide one value: measured melting point of `CCOc1ccc(-c2nc(-c3ccc(N4CCOCC4)c([N+](=O)[O-])c3)cs2)cc1OCC`
Completion: 119 to 120 °C

Prompt: Provide one value: measured melting point of `COc1ccc(-c2nc(-c3ccc4c(c3)CCCN4)cs2)cc1OC.Cl`
Completion: 156 to 158 °C

----------
EXPERIMENTAL_ENDPOINT: melting point

{"MOLECULE": "CCOc1ccc(-c2nc(-c3cc(C(=O)O)c(O)cc3O)cs2)cc1OCC [Example 360]", "melting point": "233 to 234 °C"}

Prompt: Provide one value: measured melting point of COc1ccc(-c2nc(-c3ccc(O)c(O)c3)cs2)cc1OC.Cl [Example 1]
Completion: 146 to 148 °C

Prompt: Provide one value: measured melting point of CCOc1ccc(-c2nc(-c3ccc(O[C@@H]4O[C@H](CO)[C@@H](O)[C@H](O)[C@H]4O)cc3)cs2)cc1OCC [Example 237]
Completion: 138 to 140 °C

Prompt: Provide one value: measured melting point of COc1cc(-c2nc(-c3ccc4c(c3)CCC(=O)N4)cs2)ccc1S(C)(=O)=O [Example 150]
Completion: 284 to 286 °C

Prompt: Provide one value: measured melting point of `CCOc1ccc(-c2nc(C3=CCN(C)CC3)cs2)cc1OCC`
Completion: 81.2 to 83.6 °C

Prompt: Provide one value: measured melting point of NC(=O)c1ccc(-c2nc(-c3ccc4c(c3)CCC(=O)N4)cs2)cc1 [Example 148]
Completion: ≥ 300 °C
